# target of assay: UniProtKB P11309
# Sequence (P11309 whole entry): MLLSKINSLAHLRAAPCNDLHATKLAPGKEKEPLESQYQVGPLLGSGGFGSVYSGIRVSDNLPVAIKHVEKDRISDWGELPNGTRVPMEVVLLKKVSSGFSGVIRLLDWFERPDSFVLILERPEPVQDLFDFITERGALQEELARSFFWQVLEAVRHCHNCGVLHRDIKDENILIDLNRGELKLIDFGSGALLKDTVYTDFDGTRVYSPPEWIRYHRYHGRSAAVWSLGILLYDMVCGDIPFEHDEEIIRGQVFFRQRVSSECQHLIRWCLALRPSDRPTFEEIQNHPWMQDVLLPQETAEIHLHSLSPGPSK
# assay protocol: Radiometric HotSpot kinase assay, PIM-1
# Format: biochemical
# measurement setup: 1 μM compound, 10 μM ATP
measurement label: inhibition at 1 µM

// known answers, use as guide
CC(C)(C#N)c1ccc(-c2n[nH]c3cnc4ccc(-c5cccc(Cl)c5)cc4c23)cc1 [Compound 1113]
50 to 60%
CC(C)(C#N)c1ccc(-c2n[nH]c3cnc4ccc(-c5ccccc5)cc4c23)cc1 [Compound 1125]
60 to 85%
COc1cccc(-c2ccc3ncc4[nH]nc(-c5ccc(C(C)(C)C#N)cc5)c4c3c2)c1 [Compound 1115]
60 to 85%
COc1ccc(-c2ccc3ncc4[nH]nc(-c5ccc(C(C)(C)C#N)cc5)c4c3c2)cc1 [Compound 1117]
60 to 85%
Cc1cccc(-c2ccc3ncc4[nH]nc(-c5ccc(C(C)(C)C#N)cc5)c4c3c2)c1 [Compound 1123]
50 to 60%

Okay, now this compound:
Task item: Recorded inhibition at 1 µM of CC(C)(C#N)c1ccc(-c2n[nH]c3cnc4ccc(-c5cccc(Nc6ccncc6)c5)cc4c23)cc1 [Compound 1121] , please.
Reply: > 95%

Cited source: patent US20110212053A1
